Target: UniProt:P36897
Sequence (P36897 34-503): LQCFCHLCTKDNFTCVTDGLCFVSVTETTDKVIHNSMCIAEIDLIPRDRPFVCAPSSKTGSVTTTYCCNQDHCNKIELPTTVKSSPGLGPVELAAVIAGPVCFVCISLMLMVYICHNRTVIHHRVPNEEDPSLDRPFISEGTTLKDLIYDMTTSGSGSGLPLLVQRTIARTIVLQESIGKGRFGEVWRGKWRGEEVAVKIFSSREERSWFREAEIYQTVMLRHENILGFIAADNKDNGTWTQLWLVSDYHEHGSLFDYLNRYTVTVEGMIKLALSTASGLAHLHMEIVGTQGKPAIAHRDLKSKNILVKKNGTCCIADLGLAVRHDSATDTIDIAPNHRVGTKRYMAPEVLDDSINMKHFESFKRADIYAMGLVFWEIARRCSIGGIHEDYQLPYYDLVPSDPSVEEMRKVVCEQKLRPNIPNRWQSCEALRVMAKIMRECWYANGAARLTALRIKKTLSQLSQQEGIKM
Assay: In-vitro (enzyme) kinase assay, 384-well flashplate (Example 36)
Type: biochemical
Conditions: GST-ALK5, GST-SMAD2 substrate, 3 mM ATP, 30° C., 45 min; read-out: TβR activity (Example 36)
Quantity name: IC50

Please review the entries below; each comes with its answer.
Fc1ccccc1-c1cc(-c2cncc(-c3cnn(CCN4CCCC4)c3)c2)c2cccnc2n1    < 0.1 µM
CN(C)CCCn1cc(-c2cncc(-c3cc(-c4cc(Cl)ccc4F)nc4ncccc34)c2)cn1    < 0.1 µM
Fc1ccccc1-c1cc(-c2cncc(-c3cnn(CCCN4CCOCC4)c3)c2)c2cccnc2n1    < 0.1 µM
CN(C)CCNC(=O)c1ccc(-c2cncc(-c3cc(-c4cc(Cl)ccc4F)nc4ncccc34)c2)cn1    0.1 to 1 µM
Fc1ccc(Cl)cc1-c1cc(-c2cncc(-c3ccccn3)c2)c2cccnc2n1    < 0.1 µM
Cn1cc(-c2cc(-c3cc(-c4cc(Cl)ccc4F)nc4ncccc34)cnc2N)cn1    1 to 10 µM
CC1(C)CC(=O)Nc2ccc(-c3cncc(-c4cc(-c5cc(Cl)ccc5F)nc5ncccc45)c3)cc21    0.1 to 1 µM
CN1CC[C@H](n2cc(-c3cncc(-c4cc(-c5ccccc5F)nc5ncccc45)c3)cn2)C1    < 0.1 µM

Problem: Given the entry Cn1cc(-c2cncc(-c3cc(-c4ccc(F)cc4)nc4ncccc34)c2)cn1 , report its measured IC50.
Result: 0.1 to 1 µM

Problem: Then NS(=O)(=O)c1ccc(-c2cncc(-c3cc(-c4ccccc4F)nc4ncccc34)c2)cc1 ?
Result: < 0.1 µM

Problem: Then CN1CCC(n2cc(-c3cncc(-c4cc(-c5cc(Cl)ccc5F)nc5ncccc45)c3)cn2)C1 (stereo not drawn) ?
Result: < 0.1 µM

Problem: Then CN1CCC(n2cc(-c3cncc(-c4cc(-c5ccccc5F)nc5ncccc45)c3)cn2)C1 (stereo not drawn) ?
Result: < 0.1 µM

Problem: Then Fc1ccc(Cl)cc1-c1cc(-c2ccnc(-c3ccccc3)c2)c2cccnc2n1 ?
Result: > 10 µM
